# Measurement Protocol: MTT cytotoxicity assay
# Type: cell-based
# Test Settings: human, HepG2 cells, MTT, 0.0025 mM - 1mM concentration range, read-out: Cytotoxicity CC50 HepG2
Readout Name: CC50 at 24 h (µM)
Supply the numeric figure in µM, leaving out any unit text.

See these solved cases before continuing.
molecule="O=C(NC(c1ccccc1O)P(=O)(O)O)c1csc2c1CCCC2 (stereo not shown)" reading=4800
molecule="O=C(NC(c1ccccc1O)P(=O)(O)O)c1ccsc1 (stereo not shown)" reading=1830
molecule="O=C(NC(c1ccccc1O)P(=O)(O)O)c1scc2c1CCCC2 (stereo not shown)" reading=1420
molecule="O=C(Cc1cc2ccccc2s1)NC(c1ccccc1O)P(=O)(O)O (stereo not shown)" reading=5610

Request: Value lookup for CC50 at 24 h; key = O=C(Cc1csc2ccccc12)NC(c1ccccc1O)P(=O)(O)O (stereo not shown)
Response: 3910
